The reported numbers originate from ChEMBL document CHEMBL1961873.

Target: Serine/threonine-protein kinase SIK1 (Homo sapiens) (UniProt P57059);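 note: mean inhibition value from the GSK PKIS profiling set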
Sequence (P57059 whole entry): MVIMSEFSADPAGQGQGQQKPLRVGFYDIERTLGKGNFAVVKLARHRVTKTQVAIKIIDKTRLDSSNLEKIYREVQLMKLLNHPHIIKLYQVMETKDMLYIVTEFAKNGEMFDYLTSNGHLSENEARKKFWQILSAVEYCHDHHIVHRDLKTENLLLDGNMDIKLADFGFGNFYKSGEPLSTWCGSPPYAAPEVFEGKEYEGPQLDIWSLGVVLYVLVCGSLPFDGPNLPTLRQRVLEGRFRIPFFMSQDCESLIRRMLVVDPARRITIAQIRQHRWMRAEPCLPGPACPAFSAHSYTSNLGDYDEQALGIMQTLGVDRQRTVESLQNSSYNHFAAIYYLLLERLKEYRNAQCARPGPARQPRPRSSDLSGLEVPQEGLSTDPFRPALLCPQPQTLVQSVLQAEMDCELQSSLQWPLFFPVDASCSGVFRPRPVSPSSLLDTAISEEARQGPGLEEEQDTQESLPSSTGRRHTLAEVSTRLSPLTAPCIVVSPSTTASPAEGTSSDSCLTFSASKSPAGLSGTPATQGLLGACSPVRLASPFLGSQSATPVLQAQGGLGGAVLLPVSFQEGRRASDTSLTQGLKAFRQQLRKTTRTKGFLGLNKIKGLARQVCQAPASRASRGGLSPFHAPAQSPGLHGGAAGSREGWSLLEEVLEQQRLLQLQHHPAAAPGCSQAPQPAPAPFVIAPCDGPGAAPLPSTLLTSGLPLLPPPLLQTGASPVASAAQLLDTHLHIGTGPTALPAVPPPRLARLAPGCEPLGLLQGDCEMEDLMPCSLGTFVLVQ
Settings: at 1 µM
reported.metric: inhibition (%)
API: value field is a number in %; no unit string.

Prompt line: Identify measured inhibition corresponding to "Nc1ncnc2occ(-c3ccc(NC(=O)Nc4cc(C(F)(F)F)cc(C(F)(F)F)c4)cc3)c12"
Response line: 2.47

Prompt line: Identify measured inhibition corresponding to "N#Cc1c(NC(=O)c2cccc3ccccc23)sc2c1CCCC2"
Response line: 9.67

Prompt line: Identify measured inhibition corresponding to "CS(=O)(=O)Nc1ccc(N/C=C2\C(=O)Nc3ccccc32)cc1"
Response line: 2.58

Prompt line: Identify measured inhibition corresponding to "CC(=O)Nc1cccc(C#Cc2cncnc2Nc2ccc(OCc3cccc(F)c3)c(Cl)c2)n1"
Response line: -1.96

Prompt line: Identify measured inhibition corresponding to "Cn1cc(C=C2C(=O)Nc3cccnc32)c2ccccc21"
Response line: 9.48

----------
Tested on: Proto-oncogene tyrosine-protein kinase receptor Ret (Homo sapiens), P07949 [V804L]
Sequence (P07949 whole entry V804L): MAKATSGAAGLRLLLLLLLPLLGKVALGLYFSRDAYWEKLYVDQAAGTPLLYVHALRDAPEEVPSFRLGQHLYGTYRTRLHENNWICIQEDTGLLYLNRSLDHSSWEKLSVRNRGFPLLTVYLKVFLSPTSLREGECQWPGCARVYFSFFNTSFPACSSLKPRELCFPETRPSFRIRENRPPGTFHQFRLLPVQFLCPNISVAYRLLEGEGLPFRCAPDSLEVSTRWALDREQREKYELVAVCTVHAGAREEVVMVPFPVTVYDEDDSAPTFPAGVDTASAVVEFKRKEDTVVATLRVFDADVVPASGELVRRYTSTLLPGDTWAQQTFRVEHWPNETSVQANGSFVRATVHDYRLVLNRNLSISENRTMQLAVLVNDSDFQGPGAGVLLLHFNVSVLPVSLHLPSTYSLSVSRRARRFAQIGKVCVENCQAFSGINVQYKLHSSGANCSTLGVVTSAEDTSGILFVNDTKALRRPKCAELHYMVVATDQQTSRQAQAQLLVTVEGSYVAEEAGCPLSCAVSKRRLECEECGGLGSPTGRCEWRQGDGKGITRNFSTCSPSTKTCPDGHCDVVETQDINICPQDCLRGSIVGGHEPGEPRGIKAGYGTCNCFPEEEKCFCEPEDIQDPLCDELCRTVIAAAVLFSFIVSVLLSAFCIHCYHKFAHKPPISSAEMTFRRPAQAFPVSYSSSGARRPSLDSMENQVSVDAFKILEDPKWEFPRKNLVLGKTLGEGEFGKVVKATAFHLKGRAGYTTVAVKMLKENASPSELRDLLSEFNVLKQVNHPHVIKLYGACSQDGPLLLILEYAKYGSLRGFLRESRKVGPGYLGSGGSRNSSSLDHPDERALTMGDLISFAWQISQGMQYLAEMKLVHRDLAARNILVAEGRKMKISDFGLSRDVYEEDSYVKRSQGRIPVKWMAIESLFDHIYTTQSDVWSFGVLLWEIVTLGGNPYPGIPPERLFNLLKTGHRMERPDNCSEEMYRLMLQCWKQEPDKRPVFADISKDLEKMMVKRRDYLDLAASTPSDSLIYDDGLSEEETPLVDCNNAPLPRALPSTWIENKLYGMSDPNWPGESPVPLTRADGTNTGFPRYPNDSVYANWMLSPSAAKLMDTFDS
Details: at 0.1 µM
Each record here notes measured inhibition.
API: value field is a number in %; no unit string.

Study these solved cases before continuing.
> print(dat)
                               smiles.input  reported.metric  output.unit  data.value
1  CS(=O)(=O)CCNCc1ccc(-c2ccc3ncnc(Nc4ccc(OCc5cccc(F)c5)c(C(F)(F)F)c4)c3c2)o1       inhibition            %         1.9
2  COc1cc(C)c(NC(=O)CN(C)C)cc1Nc1nc(Nc2cccc(F)c2C(N)=O)c2cc[nH]c2n1       inhibition            %        4.41
3  Fc1cccc(COc2ccc(Nc3ncnc4cc(-c5ccc[nH]5)sc34)cc2Cl)c1       inhibition            %        3.25
4  CCn1c(-c2nonc2N)nc2cncc(C(=O)N3CCNCC3)c21       inhibition            %         3.5
5  COc1cc2ncn(-c3cc(O[C@H](C)c4ccccc4Cl)c(C(N)=O)s3)c2cc1OC       inhibition            %        19.5
6  CS(=O)(=O)CCNCc1nc(-c2ccc3ncnc(Nc4ccc(F)c(Cl)c4)c3c2)cs1       inhibition            %         5.1
7  COC(=O)Nc1nc2cc(Oc3ccc(NC(=O)Nc4cccc(C(=O)O)c4)cc3)ccc2[nH]1       inhibition            %         2.8
8  COc1cc2ncn(-c3cc(OCc4ccccc4C(F)(F)F)c(C(N)=O)s3)c2cc1OC       inhibition            %        10.4

Now consider the entry below.
Prompt line: Identify measured inhibition corresponding to "Nc1nc(-c2ccc3c(c2)C(=Cc2cc(Br)c(O)c(Br)c2)C(=O)N3)cs1"
Response line: 1.75

----------
Target: Leucine-rich repeat serine/threonine-protein kinase 2 (Homo sapiens);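 note: mean percent inhibition of LRRK2 measured in the GSK PKIS kinase inhibitor set screen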
Conditions: at 1 µM
reported.metric: inhibition

> print(dat)
                                   compound  reported.metric  data.value
1  CC(=O)Nc1cccc(C#Cc2cncnc2Nc2ccc(OCc3cccc(F)c3)c(Cl)c2)n1       inhibition       4.78%
2  CCn1c(-c2nonc2N)nc2cncc(C(=O)N3CCNCC3)c21       inhibition       0.35%
3  COC(=O)Nc1nc2cc(Oc3cccc(NC(=O)Nc4cc(C(F)(F)F)ccc4F)c3)ccc2[nH]1       inhibition       1.81%
4  [O-][S+]1CCN(Cc2ccc(-c3ccc4ncnc(Nc5ccc(OCc6ccccc6)c(F)c5)c4c3)o2)CC1       inhibition       2.77%
5                CCn1c(-c2nonc2N)nc2ccncc21       inhibition       2.85%

Prompt line: Identify measured inhibition corresponding to CC1=C(C(=O)Nc2ccc3[nH]ncc3c2)C(c2ccc3ccccc3c2)CC(=O)N1 (centres undefined)
Response line: 10.1%

Prompt line: Identify measured inhibition corresponding to "CS(=O)(=O)CCNCc1ccc(-c2ccc3ncnc(Nc4ccc(OCc5cccc(F)c5)c(C(F)(F)F)c4)c3c2)o1"
Response line: 1.68%

Prompt line: Identify measured inhibition corresponding to "COc1cc2ncn(-c3cc(OCc4ccccc4C(F)(F)F)c(C(N)=O)s3)c2cc1OC"
Response line: 16.1%

Prompt line: Identify measured inhibition corresponding to CC1=C(C(=O)Nc2ccc3[nH]ncc3c2)C(c2ccc(Cl)c(Cl)c2)CC(=O)N1 (centres undefined)
Response line: 4.77%

----------
Tested on: Proto-oncogene tyrosine-protein kinase receptor Ret (Homo sapiens), P07949 [V804L]
Settings: at 0.1 µM
Each record here notes measured inhibition.
API: value field is a number in %; no unit string.

> print(dat)
                                   compound  reported.metric  data.value
1  CC1=C(C(=O)Nc2ccc3[nH]ncc3c2)C(c2ccc3ccccc3c2)CC(=O)N1 (stereo unspecified)       inhibition        12.4

Prompt line: Identify measured inhibition corresponding to "[O-][S+]1CCN(Cc2ccc(-c3ccc4ncnc(Nc5ccc(OCc6ccccc6)c(F)c5)c4c3)o2)CC1"
Response line: 8.58

Prompt line: Identify measured inhibition corresponding to "c1cnn2ncc(-c3ccnc(Nc4ccc5c(c4)OCCO5)n3)c2c1"
Response line: 5.79

Prompt line: Identify measured inhibition corresponding to "O=C1NC(=O)C(c2ccc(Cl)cc2)=C1Nc1ccc(Cl)c(C(=O)O)c1"
Response line: 0.34

Prompt line: Identify measured inhibition corresponding to "CS(=O)(=O)CCNCc1ccc(-c2ccc3ncnc(Nc4ccc(OCc5ccccc5)c(Cl)c4)c3c2)o1"
Response line: 9.04

Prompt line: Identify measured inhibition corresponding to "COc1cc2ncn(-c3cc(O[C@@H](C)c4ccccc4Cl)c(C(N)=O)s3)c2cc1OC"
Response line: 8.18

Prompt line: Identify measured inhibition corresponding to "Cc1cccc(-c2n[nH]cc2-c2ccc3ncccc3n2)n1"
Response line: -1.82

Prompt line: Identify measured inhibition corresponding to "Cc1ccc(NC(=O)c2ccnc(N3CCCC3)c2)cc1-c1ccc(C(=O)NCC2CC2)cc1"
Response line: 8.29

Prompt line: Identify measured inhibition corresponding to "CS(=O)(=O)Nc1ccc(N/C=C2\C(=O)Nc3ccccc32)cc1"
Response line: 17.9

Prompt line: Identify measured inhibition corresponding to "COc1cc2ncn(-c3cc(OCc4ccccc4Cl)c(C(N)=O)s3)c2cc1OC"
Response line: 4.73

Prompt line: Identify measured inhibition corresponding to "CCN1CCC(CC(=O)Nc2n[nH]c3nc(-c4cccs4)c(Br)cc23)CC1"
Response line: 0.08

----------
Each record here notes measured inhibition.
Biological target: Serine/threonine-protein kinase MRCK beta (Homo sapiens) (UniProt Q9Y5S2);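 note: values are mean percent inhibition of MRCKB, screened as part of the GSK PKIS kinase inhibitor set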
Sequence (Q9Y5S2 whole entry): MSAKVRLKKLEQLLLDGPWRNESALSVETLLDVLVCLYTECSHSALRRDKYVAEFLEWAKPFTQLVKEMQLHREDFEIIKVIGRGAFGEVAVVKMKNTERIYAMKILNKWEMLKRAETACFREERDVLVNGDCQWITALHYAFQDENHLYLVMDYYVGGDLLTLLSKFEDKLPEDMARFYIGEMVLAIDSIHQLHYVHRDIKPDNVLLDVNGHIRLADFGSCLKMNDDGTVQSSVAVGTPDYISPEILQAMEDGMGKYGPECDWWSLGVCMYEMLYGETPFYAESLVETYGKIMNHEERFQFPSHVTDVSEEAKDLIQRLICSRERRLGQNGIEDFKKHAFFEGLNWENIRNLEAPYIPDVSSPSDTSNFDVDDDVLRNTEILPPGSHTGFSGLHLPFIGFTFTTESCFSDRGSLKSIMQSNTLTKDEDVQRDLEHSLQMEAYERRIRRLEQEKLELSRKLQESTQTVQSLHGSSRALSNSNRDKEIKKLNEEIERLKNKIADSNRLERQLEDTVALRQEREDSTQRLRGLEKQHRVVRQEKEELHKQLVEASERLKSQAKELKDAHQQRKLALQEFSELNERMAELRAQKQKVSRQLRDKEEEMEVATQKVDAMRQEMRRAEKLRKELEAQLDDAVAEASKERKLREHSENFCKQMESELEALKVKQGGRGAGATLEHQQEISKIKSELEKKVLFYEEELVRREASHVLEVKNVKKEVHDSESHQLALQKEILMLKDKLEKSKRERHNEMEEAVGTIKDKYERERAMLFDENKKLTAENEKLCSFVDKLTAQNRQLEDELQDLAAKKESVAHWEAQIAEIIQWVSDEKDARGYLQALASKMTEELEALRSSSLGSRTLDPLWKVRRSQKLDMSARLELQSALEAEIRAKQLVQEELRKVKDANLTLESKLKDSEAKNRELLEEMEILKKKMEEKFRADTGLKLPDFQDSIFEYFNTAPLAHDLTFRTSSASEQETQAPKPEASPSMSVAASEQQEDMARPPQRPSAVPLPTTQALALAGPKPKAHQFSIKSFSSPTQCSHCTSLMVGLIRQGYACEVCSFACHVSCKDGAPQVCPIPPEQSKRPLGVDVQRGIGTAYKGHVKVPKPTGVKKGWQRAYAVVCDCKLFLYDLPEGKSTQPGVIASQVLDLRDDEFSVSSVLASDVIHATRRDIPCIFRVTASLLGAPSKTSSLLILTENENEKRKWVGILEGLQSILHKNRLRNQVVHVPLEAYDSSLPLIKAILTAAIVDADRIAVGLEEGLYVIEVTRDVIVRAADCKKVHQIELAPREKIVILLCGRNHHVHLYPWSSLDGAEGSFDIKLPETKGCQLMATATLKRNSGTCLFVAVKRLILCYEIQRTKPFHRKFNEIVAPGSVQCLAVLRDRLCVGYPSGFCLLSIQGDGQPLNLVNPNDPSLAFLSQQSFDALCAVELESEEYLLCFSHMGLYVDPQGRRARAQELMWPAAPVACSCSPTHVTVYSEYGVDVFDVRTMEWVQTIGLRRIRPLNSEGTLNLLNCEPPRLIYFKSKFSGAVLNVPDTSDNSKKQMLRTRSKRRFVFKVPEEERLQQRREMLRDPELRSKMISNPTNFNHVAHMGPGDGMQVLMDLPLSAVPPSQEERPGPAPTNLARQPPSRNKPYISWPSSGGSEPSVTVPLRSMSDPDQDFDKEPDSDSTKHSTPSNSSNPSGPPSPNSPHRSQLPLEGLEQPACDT
Conditions: at 0.1 µM
API: value field is a number in %; no unit string.

Study these solved cases before continuing.
> print(dat)
                               smiles.input  data.value
1  c1cnn2ncc(-c3ccnc(Nc4ccc5c(c4)OCCO5)n3)c2c1        1.21
2  Cc1ccc(NC(=O)c2ccnc(N3CCCC3)c2)cc1-c1ccc(C(=O)NCC2CC2)cc1         1.8
3  CS(=O)(=O)CCNCc1ccc(-c2ccc3ncnc(Nc4ccc(OCc5ccccc5)c(Cl)c4)c3c2)o1        0.86
4      Nc1nc(-c2ccccn2)c(-c2ccc3ncccc3n2)s1       -1.45
5  CS(=O)(=O)CCNCc1nc(-c2ccc3ncnc(Nc4ccc(F)c(Cl)c4)c3c2)cs1       -0.31

Now consider the entry below.
Prompt line: Identify measured inhibition corresponding to "COc1cc(C=NNc2ncnc3c2cnn3-c2ccccc2)ccc1O"
Response line: 1.02

----------
Target: Serine/threonine-protein kinase D3 (Homo sapiens) (UniProt O94806);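 note: values are mean inhibition figures against PRKD3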
Sequence (O94806 whole entry): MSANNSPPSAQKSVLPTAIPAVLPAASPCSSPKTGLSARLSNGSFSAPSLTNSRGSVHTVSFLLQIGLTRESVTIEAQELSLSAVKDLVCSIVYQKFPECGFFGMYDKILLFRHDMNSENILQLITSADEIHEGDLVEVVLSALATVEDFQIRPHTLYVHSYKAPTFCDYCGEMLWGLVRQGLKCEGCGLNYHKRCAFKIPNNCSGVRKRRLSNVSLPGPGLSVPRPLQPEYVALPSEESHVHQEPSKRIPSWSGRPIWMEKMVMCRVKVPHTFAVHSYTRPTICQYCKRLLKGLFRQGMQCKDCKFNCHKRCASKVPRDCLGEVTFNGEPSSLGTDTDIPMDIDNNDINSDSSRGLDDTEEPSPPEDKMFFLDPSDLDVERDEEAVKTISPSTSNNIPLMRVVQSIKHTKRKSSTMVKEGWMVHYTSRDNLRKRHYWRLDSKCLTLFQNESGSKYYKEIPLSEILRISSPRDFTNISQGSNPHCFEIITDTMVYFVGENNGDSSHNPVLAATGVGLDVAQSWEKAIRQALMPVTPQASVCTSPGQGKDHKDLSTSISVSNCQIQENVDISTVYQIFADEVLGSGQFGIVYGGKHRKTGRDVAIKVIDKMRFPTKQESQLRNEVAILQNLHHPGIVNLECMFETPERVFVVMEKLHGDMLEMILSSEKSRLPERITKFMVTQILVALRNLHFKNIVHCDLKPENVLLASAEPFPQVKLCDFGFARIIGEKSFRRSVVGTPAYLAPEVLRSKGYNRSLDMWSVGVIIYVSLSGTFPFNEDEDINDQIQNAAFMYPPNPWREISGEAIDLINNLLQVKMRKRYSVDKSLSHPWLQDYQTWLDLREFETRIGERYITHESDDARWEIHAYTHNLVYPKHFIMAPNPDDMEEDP
Conditions: at 1 µM
reported.metric: inhibition (%)
API: value field is a number in %; no unit string.

> print(dat)
                               smiles.input  reported.metric  data.value
1  CC(=O)Nc1cccc(C#Cc2cncnc2Nc2ccc(OCc3cccc(F)c3)c(Cl)c2)n1       inhibition       -1.81
2             COc1ccc(-c2coc3ncnc(N)c23)cc1       inhibition        7.56
3  COC(=O)Nc1nc2cc(Oc3cccc(NC(=O)Nc4cc(C(F)(F)F)ccc4F)c3)ccc2[nH]1       inhibition        2.71
4  O=C1NC(=O)C(N2CCc3ccccc32)=C1c1ccc(Cl)cc1       inhibition        6.02

Prompt line: Identify measured inhibition corresponding to "Cc1cc(O)cc(C)c1/C=C/c1cncc(-c2nn[nH]n2)c1"
Response line: 4.77

Prompt line: Identify measured inhibition corresponding to "CC(C)=Cc1cccc2c1/C(=N/Nc1ccc(S(N)(=O)=O)cc1)C(=O)N2"
Response line: 8.68
